- study_system: Ratio of Nucleoli Translocation and Cytoplasm, AR (gene 367)
- measurement_notes: UPITT_HCI_U2OS_AR_TIF2_Nucleoli_Cytoplasm_Ratio_Agonist: University of Pittsburgh U2OS Androgen Receptor-Transcriptional Intermediary Factor 2 (AR-TIF2) Agonism High Content Imaging Assay for Ratio of Nucleoli Translocation and Cytoplasm (AID 2284000);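 also: hits raise the red nucleolar to cytoplasm ratio above vehicle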
Records with an inconclusive call do not appear. The source made the active and inactive calls. The calls were made as follows: active = hit-call score of the fitted dose curve at least 0.9, where 1 is the maximum; inconclusive = response in the unintended direction; inactive = score below 0.9.
One label from this list, please: active, inactive

Past entries and their recorded results:
CC1=CCC(C(C)(C)O)CC1 (stereo not given)    inactive
CC(=O)N(C)C    inactive
CCCCCCOc1ccc(O)cc1    active
CCO[Si](CC)(OCC)OCC    inactive
CC(CCO)CC(C)(C)C (stereo not given)    inactive

Query block: GET /call?item= CC1COC(=O)O1 (stereo not given) returns the recorded outcome of this test.
Result block: inactive

Query block: GET /call?item= `c1ccc2c(c1)-c1ccc3ccc4cccc5cc-2c1c3c45` returns the recorded outcome of this test.
Result block: inactive

Query block: GET /call?item= `CC(C)(C)c1cccc(O)c1` returns the recorded outcome of this test.
Result block: active

Query block: GET /call?item= `CCOc1ccc(NC(C)=O)cc1` returns the recorded outcome of this test.
Result block: inactive

Query block: GET /call?item= `FC(F)(F)c1ccc(Cl)c(Cl)c1` returns the recorded outcome of this test.
Result block: inactive

----------
- measurement_notes: ATG_TCF_b_cat_CIS: Attagene CIS-FACTORIAL HepG2 Assay for human T-Cell-Factor with beta-catenin (TCF/b-cat) (AID 2282965)
- condition_parameters: HepG2 TCF/beta-catenin cis-reporter transcription, actives raise or lower the signal
- Procedure: ATG_CIS is a cell-based, multiplexed-readout assay that uses HepG2, a human liver cell line, with measurements taken at 24 hours after chemical dosing in a 24-well plate.ATG_TCF_b_cat_CIS is one of 52 assay component(s) measured or calculated from the ATG_CIS assay. […] This assay endpoint, ATG_TCF_b_cat_CIS, was analyzed with bidirectional fitting relative to DMSO as the negative control and baseline of activity. […]
Active and inactive are the calls of the source. Rule for the calls: active = hit-call score of the fitted dose curve at least 0.9, where 1 is the maximum; inactive = score below 0.9.
One label from this list, please: TRUE = active, FALSE = inactive

Query block: GET /call?item= `NCCN1CCNCC1` returns the recorded outcome of this test.
Result block: FALSE

Query block: GET /call?item= `CC(=O)OC/C=C(C)/C=C/C=C(C)/C=C/C1=C(C)CCCC1(C)C` returns the recorded outcome of this test.
Result block: TRUE

Query block: GET /call?item= `CC=CC(=O)C1=C(C)C=CCC1(C)C` returns the recorded outcome of this test.
Result block: FALSE

Query block: GET /call?item= `Nc1ccn([C@H]2CC[C@@H](CO)O2)c(=O)n1` returns the recorded outcome of this test.
Result block: FALSE

----------
- measurement_notes: ATG_GRE_CIS: Attagene CIS-FACTORIAL HepG2 Assay for human Glucocorticoid Response Elements (GRE) (AID 2282947)
- condition_parameters: HepG2 GRE cis-reporter, Attagene multiplex mRNA; actives raise or lower the signal
Active and inactive are the calls of the source. How the source made its calls: active means hit-call score of the fitted dose curve at least 0.9, where 1 is the maximum; inactive means score below 0.9.
One label from this list, please: true = active, false = inactive

CCC(C)(C)c1cc(O)c(C(C)(C)CC)cc1O    true

Query block: GET /call?item= `C1CCCNCC1` returns the recorded outcome of this test.
Result block: false

Query block: GET /call?item= `CCCc1ccc(O)cc1` returns the recorded outcome of this test.
Result block: false
